target: UniProt:Q16790
measure_name: pKi
Quick note: pKi means taking -log10 of the concentration in moles per liter.

### Prompt // fetch pKi given entry `Cc1c2cc(c(C)[n+]1-c1ccc(S(=O)(=O)Nc3nnc(S(N)(=O)=O)s3)cc1)CCCCCCCCC2.[O-][Cl+3]([O-])([O-])[O-]`
### Response 7.92

---

molecular target: Carbonic anhydrase 2 (Homo sapiens, UniProt P00918)
measure_name: pKi
FYI, pKi means -log10 of a concentration in mol per litre.

### Prompt Please give measured pKi of the following entry: `Cc1c2cc(c(C)[n+]1-c1ccc(S(=O)(=O)Nc3nnc(S(N)(=O)=O)s3)cc1)CCCCCCCCC2.[O-][Cl+3]([O-])([O-])[O-]`
### Response 8.86
